Cited source: patent US8735444B2

# EXPERIMENT: Spectral properties of the fluorinated rhodamines (absorption, emission, quantum yield, lifetime)
# Assay type: physicochemical
# REPORTED CONDITIONS: aqueous buffer at pH 7
MEASUREMENT NAME: ΦFL

Task item: Look at this compound and give its reported ΦFL. CNc1cc2c(cc1F)C1(OC(=O)c3ccccc31)c1cc(F)c(NC)cc1O2 [Compound 23, 2,7-Difluoro-N,N′-dimethylrhodamine]
Reply: 0.87

Task item: Look at this compound and give its reported ΦFL. O=C(O)c1ccccc1-c1c2ccc(=NCC(F)(F)F)c(S(=O)(=O)O)c-2oc2c(S(=O)(=O)O)c(NCC(F)(F)F)ccc12 [Compound 16]
Reply: 0.88

Task item: Look at this compound and give its reported ΦFL. O=C(O)c1ccc2c(c1)C1(OC2=O)c2ccc(NCC(F)(F)F)cc2Oc2cc(NCC(F)(F)F)ccc21 [15 (42-COOH)]
Reply: 0.95

Task item: Look at this compound and give its reported ΦFL. Nc1cc2c(cc1F)C1(OC(=O)c3ccccc31)c1cc(F)c(N)cc1O2 [Compound 10, 2,7-Difluororhodamine]
Reply: 0.87

Task item: Look at this compound and give its reported ΦFL. CN(C)c1cc2c(cc1F)C1(OC(=O)c3ccccc31)c1cc(F)c(N(C)C)cc1O2 [Compound 27]
Reply: 0.02
